Source listed as PubChem BioAssay.

assay: inhibitors of TNFa-induced NFkB p65 translocation, primary screen, imaging, HUVEC, MLSMR starter and 10KST1 sets (AID 438); settings: HUVEC TNFa-induced p65 nuclear translocation; measured here: nuclei count (cytotoxicity indicator), at 2.08 µM;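 note: compound added about 3h40 before a 20 min TNFalpha stimulation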
Response key: yes means cell count >= 400; no means cell count < 400.

{"Compound": "CCOC(=O)c1[nH]c(C)c(C(=O)N(C)C)c1C", "Class Label": "yes"}
{"Compound": "Cc1ccccc1NC(=O)CSc1nnc(Cc2cccn2C)n1-c1ccc(F)cc1", "Class Label": "yes"}
{"Compound": "Cc1[nH]c(=O)[nH]c(=O)c1S(=O)(=O)N1c2ccc(F)cc2CCC1C (centres undefined)", "Class Label": "no"}
{"Compound": "O=S(=O)(Nc1cccc2ncccc12)c1cccs1", "Class Label": "yes"}
{"Compound": "COc1ccc(-c2noc(CSc3nc4ccccc4c(=O)n3-c3ccccc3)n2)cc1OC", "Class Label": "yes"}
{"Compound": "COc1ccc(-c2cc(C(=O)NCc3ccc(Cl)cc3)no2)cc1OC", "Class Label": "no"}
{"Compound": "O=C(CSc1nnc(-c2cnccn2)n1Cc1ccco1)c1ccc(Cl)cc1", "Class Label": "no"}
{"Compound": "CN1CCN(c2nc(-c3ccncc3)nc3ccccc23)CC1", "Class Label": "no"}
{"Compound": "O=c1[nH]c2cc3c(cc2cc1C(c1nnnn1Cc1ccccc1)N1CCCc2ccccc21)OCO3 (centres undefined)", "Class Label": "yes"}
{"Compound": "CCOC(=O)c1c(NCc2ccc3c(c2)OCO3)c2ccccc2[nH]c1=O", "Class Label": "yes"}
{"Compound": "CC(=O)C1=C(C)OC(N)=C(C#N)C1c1ccncc1 (centres undefined)", "Class Label": "no"}
{"Compound": "CCCC(=O)Nc1ccc(NC(=O)C2CC2)cn1", "Class Label": "yes"}
{"Compound": "COc1ccc(OC)c(C(=O)CSc2nc3ncccc3[nH]2)c1", "Class Label": "no"}
{"Compound": "FC(F)Oc1cccc2cccnc12", "Class Label": "yes"}
{"Compound": "COc1ccc(Cc2nc(-c3ccc(Br)cc3)no2)cc1", "Class Label": "no"}
{"Compound": "COc1ccc(-n2c(COc3cccc(C)c3)nnc2SCC(=O)NCc2ccco2)cc1", "Class Label": "yes"}
{"Compound": "Cn1c(=O)c2c(nc(NCC3CCCO3)n2C)n(C)c1=O (centres undefined)", "Class Label": "no"}
{"Compound": "CC(=O)Nc1ccc(S(=O)(=O)N(CC(=O)O)Cc2ccccc2)cc1", "Class Label": "yes"}
{"Compound": "O=C(NCc1ccccc1)C1CCN(S(=O)(=O)N2CCCCCC2)CC1", "Class Label": "yes"}
{"Compound": "O=C1CN(C(=O)COC(=O)C23CC4CC(CC(O)(C4)C2)C3)c2ccccc2N1", "Class Label": "yes"}
{"Compound": "CCC(=O)N(Cc1ccco1)c1nc(-c2cc(OC)ccc2OC)cs1", "Class Label": "yes"}
{"Compound": "CCCn1c(SCC(=O)N2CCc3ccccc3C2)nc2c1c(=O)n(C)c(=O)n2C", "Class Label": "yes"}
{"Compound": "CCOCCCNC(=O)C(c1ccccc1)N(Cc1ccc2c(c1)OCO2)C(=O)CNC(C)=O (centres undefined)", "Class Label": "no"}
{"Compound": "C=CCn1c(SCc2cc(=O)n3ccsc3n2)nnc1C1CCCCC1", "Class Label": "yes"}
{"Compound": "C=CCC1(O)C(=O)Nc2ccccc21 (centres undefined)", "Class Label": "yes"}
{"Compound": "CCOc1ccc(Cn2nnc(C(=O)Nc3ccc(OC)cc3OC)c2N)cc1", "Class Label": "yes"}
{"Compound": "C1CCN=C(Nc2nc3c(s2)CCCC3)CC1", "Class Label": "yes"}
{"Compound": "Cc1cc(NC(=O)CSc2nnc(COc3cccc(C)c3C)n2Cc2ccco2)no1", "Class Label": "no"}
{"Compound": "Cc1csc(OCc2ccc(C#N)cc2)n1", "Class Label": "yes"}
{"Compound": "Cc1ccc(OCC2Cn3c(nc4c3c(=O)n(C)c(=O)n4C)O2)cc1 (centres undefined)", "Class Label": "yes"}
{"Compound": "CCCN1CCN(CCCNC(=O)Cn2nc(-c3ccc(Cl)cc3)ccc2=O)CC1", "Class Label": "yes"}
{"Compound": "COc1ccc(CCN(Cc2cc3cccc(C)c3[nH]c2=O)C(=O)N2CCCC2)cc1OC", "Class Label": "no"}
